- EXPERIMENTAL_TARGET: T1, human CHI3L1 extracellular domain fused with flag and His tag recombinant protein (human, UniProt P36222 22-383)
- T1 construct: extracellular domain; also called hCHI3L1/flag-His; hCHI3L1; not shown: flag and His tag
- T1 sequence (P36222 22-383 limits assumed): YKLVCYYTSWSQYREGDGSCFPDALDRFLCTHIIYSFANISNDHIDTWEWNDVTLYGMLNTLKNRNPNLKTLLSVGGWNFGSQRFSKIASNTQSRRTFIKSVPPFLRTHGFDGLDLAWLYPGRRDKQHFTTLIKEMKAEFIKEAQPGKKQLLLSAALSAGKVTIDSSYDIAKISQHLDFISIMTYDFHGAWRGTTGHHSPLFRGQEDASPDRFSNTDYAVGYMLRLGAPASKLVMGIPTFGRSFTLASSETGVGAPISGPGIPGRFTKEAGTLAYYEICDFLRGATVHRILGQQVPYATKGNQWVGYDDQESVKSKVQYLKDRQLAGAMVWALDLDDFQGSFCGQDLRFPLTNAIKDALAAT
- PROTOCOL_DETAILS: BLI (ForteBio Octet), mAb captured on AHC sensor, hCHI3L1/flag-His as analyte
ENDPOINT: kon (M⁻¹ s⁻¹)
Just the number in M⁻¹ s⁻¹, nothing appended.

I have this binder here, anti-CHI3L1 clone R4-54 (antibody, human IgG1, V domains shown, also called #hu R4-54; mAb clone R4-54) VH: QVQLVESGGGVVQPGRSLRLSCAASGFTFSSYGMHWVRQAPGKGLEWVAVISYDGSDKDYADSVKGRFTISRDNSKNTLFLQMNSLRAEDTAVYYCARDDYDSTYYFDNWGQGTTVTVSS VL: SYELTQPPSVSVSPGQTASITCSGDILADQYASWYQQKPGQSPVLVIYHDTKRPSGVPERFSGSTSGNTATLTISGTQAMDEAAYYCQAWDINTAWVFGGGTQLTVLG , and I need its recorded kon.
1.54e+06

I have this binder here, anti-CHI3L1 clone 293R3-4 (antibody, human IgG1, V domains shown, also called #hu 293R3-4; CHI3L1 293R3-4) VH: EVQLVQSGAEVKKPGATVKISCKVSGYSFTDYYIHWVQQAPGKGLEWMGFVDPENGETIYAEKFQGRVTITADTSTDTAYMELSSLRSDDTAVYYCATDRDYDDSSGNAFDIWGQGTMVTVSS VL: SYELTQPPSVSVSTGQTATITCSGDILGDEYAFWYQQKAGQSPVLVIYLDTRRPSGIPERFSGSNSGDTATLTISETQPVDEAVYFCQGWDSSTALYVFGTGTKVTVLG , and I need its recorded kon.
1.83e+06

I have this binder here, anti-CHI3L1 clone 293R3-2 (antibody, human IgG1, V domains shown, also called #hu 293R3-2; CHI3L1 293R3-2) VH: QVQLQESGPGLVEPSGTLSLTCAVSGGSISSSNWWSWVRQHPGKGLEWIGEIYHSGSTNYNPSLRSRVTISVDKSKNQFSLELSSVTAADTAVYYCAGDQRMEDDAFDIWGQGTMVTVSS VL: QSALTQPASVSGSPGQSITISCTGTSSDVGGYNYVSWYQQHPGKAPKLMIYDVSNRPSGVSNRFSGSKSGNTASLTISGLQAEDEADYYCSSYTSSSTLYVFGTGTKVTVLG , and I need its recorded kon.
1.08e+06

I have this binder here, anti-CHI3L1 clone R4-4 (antibody, V domains shown, also called #hu R4-4; mAb clone R4-4) VH: EVQLLESGGGLLQPGGSLRLSCAASGLTFRNYAMTWVRQAPGKGLEWVSTISGNGDETFYADSVKGHFTISRDNSKDTVYLQMNSLRAEDTAVYYCAKGGHYSFFDSWGQGSPVTVSS VL: NFMLTQPHSVSESPGKTVTISCTRSSGSIASNYVQWYQQRPGSSPTTVIYEDNQRPSGVPDRFSGSIDSSSNSASLTISGLKTEDEADYYCQSYDSSNYVFGTGTKVTVLG , and I need its recorded kon.
313000
